Readings of normalized growth for the listed compounds
# Assay: chemical genetic growth profiling, strain panel (AID 1159580);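 note: tested at 20 µM; growth read once vehicle control cultures reached saturation at 30 °C; 1 = growth at the plate median or of vehicle wells; lower values mean less growth of the strain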
# Measurement Conditions: S. cerevisiae deletion strains, growth OD, locus YEL061C, strain CIN8 (second series), active compounds read low
Among all 5,500 compounds or so, about 2,000 (36%) were called active. Inconclusive results (about 18%) are left out. The list shows a part of the results.

Solved cases (5 shown):
• NC[C@H]1O[C@H](O[C@H]2C(O[C@@H]3O[C@H](CO)[C@@H](O)[C@H]3O)[C@@H](O)[C@H](N)C[C@@H]2N)[C@H](N)[C@@H](O)[C@@H]1O (stereo not given in full) = 0.991 (inactive)
• CN[C@@H]1[C@@H](O[C@H]2O[C@H](CO)[C@@H](N)[C@H](O)[C@H]2O)O[C@H]2C[C@@H](N)[C@H](O[C@H]3[C@H](O)[C@@H](O)[C@H](N)C[C@@H]3N)O[C@@H]2[C@@H]1O = 0.999 (inactive)
• CN(C)CCc1c[nH]c2ccc(CS(=O)(=O)N3CCCC3)cc12 = 0.958 (inactive)
• NCCNCCNCCN = 0.998 (inactive)
• CNS(=O)(=O)Cc1ccc2[nH]cc(CCN(C)C)c2c1 = 1.03 (inactive)

Query: Tell me the measured normalized growth of "CN(C)C(=N)N=C(N)N" , please.
Result: 1 (inactive)

Query: Which normalized growth is listed for CN1C(=O)CCS(=O)(=O)C1c1ccc(Cl)cc1 (stereo not given) ?
Result: 0.995 (inactive)

Query: Report normalized growth for "NC(=O)NO" please.
Result: 1.02 (inactive)

Query: For the compound "CCNc1nc(Cl)nc(NCC)n1" , what normalized growth is on record?
Result: 0.997 (inactive)

Query: Form field: reported normalized growth of "COc1cnc(NS(=O)(=O)c2ccc(N)cc2)nc1"
Result: 1 (inactive)

The values you see were collected from PubChem BioAssay AID1159580.
